System: RPMI-8226 leukemia
procedure-summary: NCI tumour cell line growth inhibition, 48 h
measurement-name: TGI

Consider the following illustrative entries.
COC(=O)C1=CC2C(=O)OC1C1C(=O)NC(=O)C21 (stereo unspecified)    > 100 µM
C=C1CC(OC)(C(OC)C(=O)N[C@H]2OCO[C@H]3C2O[C@H](C[C@@H](COC)OC)C(C)(C)C3OC)O[C@H](C)[C@@H]1C (stereo partly specified)    0.917 µM
Nc1cccc2c1-c1c(cccc1[N+](=O)[O-])C2=O    > 100 µM
Cn1nnc2c(C(N)=S)ncn2c1=O    > 100 µM
COc1ccccc1-n1nnc2c(N)nc(N)nc21    > 100 µM

With those in mind, consider the next compound.
Asked: Please give the measured TGI for this compound: O=c1[nH]c2c(c(=O)[nH]1)SC(c1ccccc1)C2 (stereo unspecified)
Given back: > 100 µM
